Biological target: T1, human tissue factor (TF), membrane-bound on cells (human, UniProt P13726 33-295)
T1 construct: whole, on cells; also called cellular TF
Assay: FACS, A431 cells, 30 µg/mL
EXPERIMENTAL_ENDPOINT: Max MFI
Output spec: single numeric token, no unit.

Any idea what its Max MFI is? The binder is anti-TF HuMab 092-A09 (antibody, V domains shown, Human monoclonal antibody from HuMab mice) VH: EVQLLESGGGLVQPGGSLRLSCAASGFTFNNYAMSWVRQAPGKGLEWVSSISGSGGRTYYADSVKGRFTISRDNSKNTLFLQMNSLRAEDTAVYYCAKTPWGYYFDYWGQGTLVTVSS VL: DIQMTQSPSSLSASVGDRVTITCRASQGISSRLAWYQQKPEKAPKSLIYAASSLQSGVPSRFSGSGSGTDFTLTISSLQPEDFATYYCQQYNSYPYTFGQGTKLEIK
3140
